meta.source: PubChem BioAssay (NCI)

tested on: KM12 colon; assay: NCI-60 one-dose screen, 48 h; conditions: 10 µM unless noted
Compounds without any hit were thinned out: in the full panel of roughly 83,000, 20% have a hit. The source made the active and inactive calls. Rule for the calls: active = growth percent below 10; inactive = the rest.
Field 'call' accepts label 1 for active, label 0 for inactive

For orientation, consider the following solved cases.
Cn1cc(-c2nc(-c3c[nH]c4ncc(F)cc34)cs2)c2cccnc21 ... label 0
CSC1=Nc2c(c(C)c(-c3ccccc3)n2CCCN2CCCCC2)C2=NC(=O)C[C@H](C)N12 ... label 1
CN(C)c1nc(N)nc(Cn2c(-c3nonc3N)nc3ccccc32)n1 ... label 0
O=NC1CC=CCC1c1ccccc1 (stereo not given) ... label 0

Lab note: next molecule to report on.
Query: I'd appreciate the recorded outcome for CC(C)[O-].CC(C)[O-].CN(CCN(C)Cc1cc(F)cc(F)c1[O-])Cc1cc(F)cc(F)c1[O-].[Ti+4] from this test.
Result: label 1

* * *

Test system: NCI-H460 lung
Test: NCI-60 one-dose screen, 48 h (100 = growth as untreated, 0 = no growth, -100 = all killed)
Conditions: 10 µM unless noted
Protocol: Growth inhibition of the NCI-H460 human Non-Small Cell Lung tumor cell line is measured as a screen for anti-cancer activity. Cells are grown in 96 well plates and exposed to the test compound for 48 hours. Compounds are tested at a single concentration, which is 10^-5 M for most compounds. The reported endpoint is percent growth (GI% or GIPRCNT), where numbers from 0 - 100% represent growth inhibition, and numbers from -100% - 0 represent cell death. […]
This is part of a sample that, as a whole, favours compounds with a hit. Of some 83,000 tested, about 20% had one in any assay.
outcome measure: growth (%)
Write the number in % without appending the unit.

Example entries and their recorded answers appear below.
Cc1scc2c1N(C(=O)CN1CCN(C)CC1)c1ccccc1NC2=O ... 124
Cc1cc(C)n2nc(SCC(=O)Nc3sc4c(c3C(N)=O)CCC4)nc2n1 ... 116
CC(=O)O[C@H]1C(=O)[C@@]2(C)C([C@H](OC(=O)c3ccccc3)[C@]3(O)C[C@H](OC(=O)[C@H](O)[C@@H](NC(=O)c4ccccc4)c4ccccc4)C(C)=C1C3(C)C)[C@]1(OC(C)=O)CO[C@@H]1C[C@@H]2O (some centres undefined) ... 7.33
O=C(CSc1nc2c(n1Nc1ccccc1)-c1ccccc1SC2)Nc1nc(-c2ccc(Cl)cc2)cs1 ... 77
CN(CC(=O)Nc1nc2ccccc2[nH]1)S(=O)(=O)c1ccc(Cl)cc1 ... 45.3

Query: Sample C=C(C)[C@H]1CC/C(C)=C/CC[C@]2(C)O[C@H]2CC/C(COC(C)=O)=C\C1=O — what was its growth?
Result: 116

Query: Do the same for CC(=O)Oc1ccc(C23c4ccccc4C2(OC(C)=O)c2cc(OC(C)=O)ccc23)cc1 (centres undefined) please
Result: 88.7

Query: Do the same for c1ccc(-c2nnc(Nc3nnc(-c4ccccc4)s3)s2)cc1 please
Result: 101

Query: Do the same for COc1ccc2nccc(/C=C/c3ccnc4ccc(OC)cc34)c2c1 please
Result: 100

Query: Do the same for COc1ccc(C(=O)C(C)Br)cc1OC (centres undefined) please
Result: 103

Query: Do the same for N#CCNc1ccccc1N please
Result: 101

Query: Do the same for Fc1ccc(-c2nc(Nc3ccc(-c4nc5ccccc5[nH]4)cc3)nc(N3CCOCC3)n2)cc1 please
Result: -80.3

Query: Do the same for CCCCCCCCCCCCCCCCCc1nccn1CCO please
Result: 24.6

Query: Do the same for O=C(Nc1ccncc1)C(=O)c1cn(S(=O)(=O)c2cccc(F)c2)c2ccccc12 please
Result: 65.4

* * *

test system: SK-OV-3 ovarian; assay: NCI-60 one-dose screen, 48 h; conditions: 10 µM unless noted
This is part of a sample that, as a whole, favours compounds with a hit. Of some 83,000 tested, about 20% had one in any assay. The source made the active and inactive calls. How the source made its calls: active means growth percent below 10; inactive means the rest.
Field 'call' accepts active, inactive

For orientation, consider the following solved cases.
CCOC(=O)C(Cc1ccccc1)(C(=O)OCC)C(Br)C(=O)c1ccccc1 (stereo unspecified) ... inactive
CN(C)c1ccc2[nH]c3c(C(N)=O)cc(=O)c(=O)c=3oc2c1 ... inactive
N=C(N)/N=C(\CCc1nc2ccccc2[nH]1)c1nc2ccccc2[nH]1 ... inactive
N#Cc1ccc(NC(=O)Nc2ccc(Oc3ccc(NC(=O)Nc4ccc(C#N)cc4)cc3)cc2)cc1 ... inactive
O=C(/C=C/c1cccnc1)/C=C/c1cccnc1 ... inactive
O=Nc1ccc(O)c(=O)cc1 ... inactive

Query: I'd appreciate the recorded outcome for Nc1ccc(C2=Nc3cccc4cccc(c34)S2)cc1 from this test.
Result: inactive

Query: Do the same for CC(C)(C)c1ccc(S(=O)(=O)O)s1 please
Result: inactive

Query: Do the same for Cc1nn(-c2ccccc2)c(Cl)c1C(CC(=O)c1ccc(Cl)cc1)CC(=O)c1ccc(Cl)cc1 please
Result: inactive

Query: Do the same for O=C(O)C(=O)O please
Result: inactive

Query: Do the same for C/C(=C\CCc1ccoc1)CC/C=C(\C)CCCN1CCC(CO)CC1 please
Result: inactive

* * *

Tested on: 786-0 renal
Test: NCI-60 one-dose screen, 48 h (100 = growth as untreated, 0 = no growth, -100 = all killed)
Settings: 10 µM unless noted
Description: Cells are grown in 96 well plates and exposed to the test compound for 48 hours. Compounds are tested at a single concentration, which is 10^-5 M for most compounds. The reported endpoint is percent growth (GI% or GIPRCNT), where numbers from 0 - 100% represent growth inhibition, and numbers from -100% - 0 represent cell death. For example, a value of 40 represents 60% growth inhibition. A value of 0 means no net growth occurred over the course of the experiment. […]
About 83,000 compounds went through this panel and 20% of them were active in at least one assay; those are over-represented in the sample as a whole.
The entries below come with measured growth values attached.
Write the number in % without appending the unit.

COc1cc(/C=C2\CCC/C(=C\c3ccc(OCC4CO4)c(OC)c3)C2=O)ccc1OCC1CO1 (stereo unspecified) ... 65.2
CC12CCC3C(CCC4CC(=O)/C(=C\O)CC43C)C1CCC(=O)O2 (stereo unspecified) ... 92.5
CCCCCCC(C)(O)c1ccccc1 (stereo unspecified) ... 108
O=C(/C=C/c1cccnc1)NCCCCC1CCCN(C(=O)c2ccccc2)C1 (stereo unspecified) ... 71.7
CC(=O)NCCSC(=O)C(=O)SCCNC(C)=O ... 95.5

Query: Sample Nc1ccc(S(=O)(=O)Nc2ncccn2)cc1 — what was its growth?
Result: 107

Query: Do the same for NS(=O)(=O)c1ccc(NC2=C(Cl)C(=O)c3ccccc3C2=O)cc1 please
Result: 104

Query: Do the same for COc1ccc2nc(-c3ccc(-n4cncc4-c4ccc(OC)c(N)c4)cc3)sc2c1 please
Result: 111

Query: Do the same for NC(N)=NN=c1c(=O)c2ccccc2c1=O please
Result: 108

Query: Do the same for Cc1c(C(N)=O)sc2nc(SCC(=O)Nc3ccc(Cl)cc3)n(-c3ccccc3)c(=O)c12 please
Result: 104

Query: Do the same for CCOC(=O)c1c(NC(=O)C2CCCCC2C(=O)O)sc2c1CCCC2 (stereo unspecified) please
Result: 106

* * *

system: 786-0 renal; assay: NCI-60 one-dose screen, 48 h (100 = growth as untreated, 0 = no growth, -100 = all killed); conditions: 10 µM unless noted
About 83,000 compounds went through this panel and 20% of them were active in at least one assay; those are over-represented in the sample as a whole.
Everything with growth lower than 60% is criterion not met; everything else, including exactly 60%, is criterion met.

For orientation, consider the following solved cases.
CC(C)(C)c1cc(O)c(O)c(C(C)(C)C)c1 ... criterion not met
Clc1ccc(CCC(Cn2ccnc2)Sc2c(Cl)cccc2Cl)cc1 (stereo not drawn) ... criterion not met
C=C1CC[C@@H]2[C@](C)(COC(C)=O)[C@H](OC(C)=O)CC[C@@]2(C)[C@@H]1CC(Nc1ccc(S(=O)(=O)Nc2cc(C)on2)cc1)C1=CCOC1=O (stereo partly drawn) ... criterion met
Cc1cc([N+](=O)[O-])c(C)cc1C(=O)O ... criterion met
Cc1cc2cn3c4cccnc4[nH]c(=O)c3c2cc1C ... criterion not met
c1ccc(Nc2nnc(-c3cc(-c4cccnc4)n(-c4ccccc4)n3)s2)cc1 ... criterion met
CN(C)c1ccc2c(c1)/C(=N/O)c1ccccc1-2 ... criterion met
Cc1[nH]n(C(N)=S)c(=O)c1N=Nc1ccc(F)c(Cl)c1 ... criterion met

Lab note: next compound to report on.
Query: Is growth at least 60%? Consider O=C1/C(=C/c2ccc([N+](=O)[O-])o2)Oc2ccc(Cl)cc21
Result: criterion not met

* * *

system: DU-145 prostate; experiment: NCI-60 one-dose screen, 48 h; settings: 10 µM unless noted
About 83,000 compounds went through this panel and 20% of them were active in at least one assay; those are over-represented in the sample as a whole. The source made the active and inactive calls. The calls were made as follows: active = growth percent below 10; inactive = the rest.
Field 'call' accepts active, inactive

CN1CCN(CC(=O)Nc2nc3c(s2)Nc2cc(Cl)c(Cl)cc2NC3=O)CC1 ... inactive

Query: I'd appreciate the recorded outcome for COc1cc(Oc2cc(-c3cccnc3)ccc2NC(=O)Nc2ccc(F)cc2F)cc(OC)c1OC from this test.
Result: inactive

Query: Do the same for Cc1ccc2c(c1)O/C(=C\c1ccc([N+](=O)[O-])o1)C2=O please
Result: active

Query: Do the same for Cc1ccccc1-c1cc(Cc2ccccc2O)c(=O)[nH]n1 please
Result: inactive

Query: Do the same for COc1ccc(/C=C(\C#N)c2ccccc2)cc1 please
Result: inactive

Query: Do the same for Cc1cc2c(cc1[N+](=O)[O-])NC(CNC(C)C)CC2 (stereo unspecified) please
Result: inactive
